EXPERIMENTAL_TARGET: UniProtKB P81908
Sequence (P81908 whole entry): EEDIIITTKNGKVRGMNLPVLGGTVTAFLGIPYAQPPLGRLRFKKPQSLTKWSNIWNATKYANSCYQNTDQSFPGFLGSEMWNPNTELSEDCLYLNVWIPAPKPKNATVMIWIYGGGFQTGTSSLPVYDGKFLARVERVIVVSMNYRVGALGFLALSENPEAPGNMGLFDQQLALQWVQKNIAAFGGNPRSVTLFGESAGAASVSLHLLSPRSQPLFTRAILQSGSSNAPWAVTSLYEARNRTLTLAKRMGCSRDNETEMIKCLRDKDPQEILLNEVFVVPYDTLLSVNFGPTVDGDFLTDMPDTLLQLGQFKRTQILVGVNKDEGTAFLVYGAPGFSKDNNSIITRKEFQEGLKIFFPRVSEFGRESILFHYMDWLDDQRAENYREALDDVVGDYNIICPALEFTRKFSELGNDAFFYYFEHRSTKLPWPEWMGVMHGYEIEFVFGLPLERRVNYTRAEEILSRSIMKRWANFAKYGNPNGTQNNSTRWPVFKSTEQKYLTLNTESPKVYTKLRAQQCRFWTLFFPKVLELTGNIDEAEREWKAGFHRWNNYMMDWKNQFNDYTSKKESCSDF
ASSAY_PROCEDURE: Inhibition of equine serum BChE using S-butyrylthiocholine chloride as substrate preincubated for 15 mins followed by substrate addition by Ellman's method
Exercise: state measured IC50 for each of the compounds provided.
Please reply with the bare figure in µM and do not write the unit itself.

stdin: Need IC50, item C=CC(=O)N1C/C(=C\c2cccc([N+](=O)[O-])c2)C(=O)[C@@]2(C1)[C@H](c1cccc([N+](=O)[O-])c1)CN(C)[C@]21C(=O)Nc2ccccc21 (racemic)
stdout: 7.74

stdin: Can you share its IC50? I mean this compound: Cc1ccccc1/C=C1\CN(C(=O)[C@@H]2CCN(C)[C@]23C(=O)Nc2ccccc23)C[C@]2(C1=O)[C@H](c1ccccc1C)CN(C)[C@]21C(=O)Nc2ccccc21 (racemic)
stdout: 12.5

stdin: IC50 for C=CC(=O)N1C/C(=C\c2ccccc2OC)C(=O)[C@@]2(C1)[C@H](c1ccccc1OC)CN(C)[C@]21C(=O)Nc2ccccc21 (racemic) ?
stdout: 4.22

stdin: // IC50 lookup, key: CN1CC[C@@H](C(=O)N2C/C(=C\c3ccccc3F)C(=O)[C@@]3(C2)[C@H](c2ccccc2F)CN(C)[C@]32C(=O)Nc3ccccc32)[C@@]12C(=O)Nc1ccccc12 (racemic)
stdout: 7.44

stdin: Requested field: IC50. Item: C=CC(=O)N1C/C(=C\c2ccc(Cl)cc2)C(=O)[C@@]2(C1)[C@H](c1ccc(Cl)cc1)CN(C)[C@]21C(=O)Nc2ccccc21 (racemic)
stdout: 6.77

###

Hi there, I'd appreciate the recorded pIC50 for every entry that follows.
EXPERIMENTAL_TARGET: UniProtKB P81908
ASSAY_PROCEDURE: Inhibition of equine serum BChE using S-butyrylthiocholine chloride as substrate preincubated for 15 mins followed by substrate addition by Ellman's method
Scale for pIC50: -log10 of concentration given in mol/L; no unit attached.

stdin: Request the reported pIC50 associated with CN1CC[C@@H](C(=O)N2C/C(=C\c3ccc(Cl)cc3Cl)C(=O)[C@@]3(C2)[C@H](c2ccc(Cl)cc2Cl)CN(C)[C@]32C(=O)Nc3ccccc32)[C@@]12C(=O)Nc1ccccc12 (racemic)
stdout: 4.75

stdin: I am curious: what pIC50 value has been reported for CN1CC[C@@H](C(=O)N2C/C(=C\c3cccc([N+](=O)[O-])c3)C(=O)[C@@]3(C2)[C@H](c2cccc([N+](=O)[O-])c2)CN(C)[C@]32C(=O)Nc3ccccc32)[C@@]12C(=O)Nc1ccccc12 (racemic) ?
stdout: 4.91

stdin: What does the record list as pIC50 for CN1CC[C@@H](C(=O)N2C/C(=C\c3ccc(Cl)cc3)C(=O)[C@@]3(C2)[C@H](c2ccc(Cl)cc2)CN(C)[C@]32C(=O)Nc3ccccc32)[C@@]12C(=O)Nc1ccccc12 (racemic) ?
stdout: 5.03

stdin: What does the record list as pIC50 for C=CC(=O)N1C/C(=C\c2ccccc2Cl)C(=O)[C@@]2(C1)[C@H](c1ccccc1Cl)CN(C)[C@]21C(=O)Nc2ccccc21 (racemic) ?
stdout: 5.38

stdin: Given the molecule C=CC(=O)N1C/C(=C\c2ccccc2C)C(=O)[C@@]2(C1)[C@H](c1ccccc1C)CN(C)[C@]21C(=O)Nc2ccccc21 (racemic) , what is its reported pIC50?
stdout: 5.41
